TARGET_OF_ASSAY: T1, CDK4/cyclin D1 (as used in the binding assay) (UniProt P11802 1-303; P24385 1-295)
T1 construct: kept apart from the GST-tagged kinase-assay complex m2; also called CDK4/D1
EXPERIMENT: FP binding assay
No end group written: not given here. Pyrazole N‑cap, 4‑chlorophenylpyrazole (R1 H, R2 Cl, R3 H, R4 CH3, W N, X N, Y C, Z C) = not defined here; Pyrazole N‑cap (R1 H, R2 H, R3 H, R4 CH3, W N, X N, Y C, Z C) = not defined here

| BINDER | IC50 |
| --- | --- |
| {2‑(3-fluorophenyl)‑1H‑imidazole‑4‑carbonyl}-RLIF (also called 2-(3-fluorophenyl)-1H-imidazole-4-carboxamide) [SCCP 5852 (Imidazole N-cap ligated to RLIF)] | 67 µM |
| {Pyrazole N‑cap, 4‑chlorophenylpyrazole (R1 H, R2 Cl, R3 H, R4 CH3, W N, X N, Y C, Z C)}-RLIF (reading uncertain; also: cap structure given only by scaffold parameters, also called 4-chlorophenylpyrazole) [SCCP 5765 (Pyrazole N-cap ligated to RLIF)] | 49 µM |
| {Pyrazole N‑cap (R1 H, R2 H, R3 H, R4 CH3, W N, X N, Y C, Z C)}-RLIF (reading uncertain; also: cap structure given only by scaffold parameters) [SCCP 5762 (Pyrazole N-cap ligated to RLIF)] | 53.8 µM |
| {Triazole N‑cap, 4‑chlorophenyl triazole (R1 H, R2 Cl, R3 H, R4 CH3, W N, X N, Y N, Z C)}-RLIF (also: cap structure given only by scaffold parameters, also called 4-chlorophenyl triazole; 4-chloro phenyl triazole) [SCCP 5774 (Triazole N-cap ligated to RLIF)] | 11.3 µM |
